- study-system: SPP3b (Arabidopsis thaliana)
- Construct: about 52 kDa subunit, about 90 kDa dimer; cDNA from RIKEN
- Sequence (Q93XN8 whole entry): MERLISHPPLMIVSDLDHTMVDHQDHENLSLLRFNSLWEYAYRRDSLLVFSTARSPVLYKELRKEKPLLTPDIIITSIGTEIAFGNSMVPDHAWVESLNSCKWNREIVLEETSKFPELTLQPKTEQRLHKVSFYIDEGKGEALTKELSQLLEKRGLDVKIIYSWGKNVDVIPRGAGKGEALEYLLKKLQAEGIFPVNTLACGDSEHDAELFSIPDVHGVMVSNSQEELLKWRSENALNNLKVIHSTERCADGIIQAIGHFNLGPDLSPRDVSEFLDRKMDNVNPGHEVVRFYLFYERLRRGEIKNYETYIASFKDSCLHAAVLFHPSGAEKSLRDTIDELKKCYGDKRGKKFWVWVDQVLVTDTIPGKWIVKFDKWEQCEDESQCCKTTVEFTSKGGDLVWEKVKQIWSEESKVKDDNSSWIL
- measurement-description: inhibition of Pi release from Suc6P (SnCl2-molybdate)
quantity-measured: Ki (mM)
Number in mM, nothing else.

Please fill in: Ki reported for OC[C@H]1O[C@@](CO)(O[C@H]2O[C@H](CO)[C@@H](O)[C@H](O)[C@H]2O)[C@@H](O)[C@@H]1O = 24
